- target.system: T1, PD-L2 (coated antigenic protein) (UniProt Q9BQ51 20-220, limits assumed)
- T1 sequence (looked up): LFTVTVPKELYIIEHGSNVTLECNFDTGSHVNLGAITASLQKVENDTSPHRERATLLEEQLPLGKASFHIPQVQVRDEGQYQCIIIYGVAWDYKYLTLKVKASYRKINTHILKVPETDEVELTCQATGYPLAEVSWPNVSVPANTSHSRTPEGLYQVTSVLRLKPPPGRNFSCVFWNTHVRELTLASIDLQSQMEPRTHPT
- procedure.details: ELISA, purified nanobody 10 ug/mL on coated PD-L2, anti-HA detection
ELISA absorbance (A405 nm) reference
All answers are understood in A405 nm, so give the number only.

binder | readout | unit.abbrev | experimental.value
SEQ ID NO 10 (VHH, pMECS-expressed; also called anti-PD-L1 nanobody No. 10; VHH numbered 10) VHH: QVQLQESGGGSVQAGGSLRLSCTAPGFTSKTCAMRWYRQAPGKEREFVSAISTVGTTTYADSVKGRFIISKDEAKDTVYLQINSLKPEDTAMYSCKTFACRHCIGQSCRTEPDYWGQGTQVTVSS | ELISA absorbance (A405 nm) | A405 nm | 0.117

Pending binder:
Lab note: SEQ ID NO 6 (VHH, pMECS-expressed; also called anti-PD-L1 nanobody No. 6; VHH numbered 6) VHH: QVQLQESGGGSVQAGETLRLSCTASGDTFDASGVGWFRQVSGNECDLVSSINRDGTTYYAPSVAGRFTMSQNNAKNTVYLQMNSLKPDDTAVYYCATDPAVGIVVRSTCRGPFGYWGQGTQVTVSS gave ELISA absorbance (A405 nm) of 0.115
